protocolNotes: qHTS assay to identify small molecule antagonists of the estrogen related receptor signaling pathway with the pleiotropic PPARgamma coactivator (PGC) from Tox21 10K library - cell viability counter screen (AID 1224840); also: nearly all actives have a fitted effect of over 40% in size
testContext: PGC/ERR reporter cells viability, CellTiter-Fluor, 17.5 h; series mostly up to 92.4 µM
Results filed as inconclusive are left out. The source made the active and inactive calls. Calls follow the shape of the dose curve; as a rule, active = well fitted cell-killing curve with a large enough effect in the repeat runs (not every such curve was filed as active); inconclusive = weak or mixed curves, or effect the other way; inactive = no such curve, though single readings can be large or run the other way.
The categories you may choose from are y (active), n (inactive)

Please let me know the test result on file for `O` . n

Please let me know the test result on file for `C=CC(=O)OCCCCCCOC(=O)C=C` . y

Please let me know the test result on file for `N[C@@H]1CONC1=O` . n

Please let me know the test result on file for `O=C(O)Cn1cnnn1` . n

Please let me know the test result on file for `OCCN1CCNCC1` . n

Please let me know the test result on file for `Cc1cc(C(C)(C)C)c(O)c(C(C)(C)C)c1` . n

Please let me know the test result on file for `CCCCCC(=O)O[C@]1(C(C)=O)CC[C@H]2[C@@H]3CCC4=CC(=O)CC[C@]4(C)[C@H]3CC[C@@]21C` . y

Please let me know the test result on file for `CC(=O)O[C@]1(C(C)=O)CC[C@H]2[C@@H]3C[C@H](C)C4=CC(=O)CC[C@]4(C)[C@H]3CC[C@@]21C` . n

Please let me know the test result on file for CC1COC(=O)O1 (stereo not drawn) . n

Please let me know the test result on file for `NC(=Nc1ccccc1)Nc1ccccc1` . n

Please let me know the test result on file for `Nc1nc2ccccc2[nH]1` . n

Please let me know the test result on file for CCC(=O)/C=C/C1C(C)=CCCC1(C)C (stereo not drawn) . n

---

protocolNotes: qHTS assay to identify small molecule agonists of the estrogen related receptor signaling pathway with the pleiotropic PPARgamma coactivator (PGC) from Tox21 10K library (AID 1224842); also: nearly all actives have a fitted effect of over 15% in size; as to activation: % is scaled to controls: 0 for no effect and ±100 for the full control effect
testContext: PGC/ERR reporter cell line, luciferase ONE-Glo, 18 h; series mostly up to 92.4 µM
Results filed as inconclusive are left out. Activity calls are given as the source filed them. Calls follow the shape of the dose curve; as a rule, active = well fitted activation curve with a large enough effect in the repeat runs; inconclusive = weak or mixed curves, or effect the other way; inactive = no such curve, though single readings can be large or run the other way.
The categories you may choose from are TRUE for active, FALSE for inactive

molecule | labelClass
CC(C)CCOC(=O)c1ccc(N(C)C)cc1 | TRUE
CCCCOCCOC(=O)c1ccccc1C(=O)OCCOCCCC | FALSE
BrC1CCC(Br)C(Br)CCC(Br)C(Br)CCC1Br (configuration not stated) | FALSE
CCC(CO)(CO)COCC(CC)(CO)CO | FALSE
C=C(C)C1CC=C(C)C(OC(C)=O)C1 (configuration not stated) | FALSE

Attention now shifts to the item below.
Please let me know the test result on file for CC(C)(C)NCC(O)COc1ccccc1OCC1CCCO1 (configuration not stated) . FALSE

---

protocolNotes: qHTS assay to identify small molecule agonists of the TGF-beta/Smad signaling pathway - cell viability counter screen (AID 1346829); also: top concentration of the series differs between compounds; % is scaled to controls: 0 for no effect and ±100 for the full control effect; nearly all actives have a fitted effect of over 45% in size
testContext: SBE-bla HEK293T viability, CellTiter-Glo luminescence, 5 h; series mostly up to 76.8 µM
Results filed as inconclusive are left out. Calls of active or inactive are those of the source. Calls follow the shape of the dose curve; as a rule, active = well fitted cell-killing curve with a large enough effect in the repeat runs; inconclusive = weak or mixed curves, or effect the other way; inactive = flat fitted curve, though single readings scatter.
The categories you may choose from are yes (active), no (inactive)

Would you please look over these solved cases?
molecule | labelClass
CC(C)(C)c1cc(C(C)(C)C)c(O)c(C(C)(C)C)c1 | no
CC(C)C(=O)c1c(C(C)C)nn2ccccc12 | no
CC[C@H]1CN2CCc3cc(OC)c(OC)cc3[C@@H]2C[C@@H]1C[C@H]1NCCc2cc(OC)c(OC)cc21 | no

Please let me know the test result on file for `CC(=O)N[C@@H](CS)C(=O)O` . no

Please let me know the test result on file for `CC(N)=O` . no

Please let me know the test result on file for `O=C1CC2(CCCC2)CC(=O)N1CCCCN1CCN(c2ncccn2)CC1` . no

Please let me know the test result on file for `c1cnc2cc3c(cc2n1)C1CNCC3C1` . no

Please let me know the test result on file for CC1COc2c(N3CCN(C)CC3)c(F)cc3c(=O)c(C(=O)O)cn1c23 (stereo not drawn) . no

---

protocolNotes: qHTS assay to identify small molecule antagonists of the estrogen related receptor signaling pathway with the pleiotropic PPARgamma coactivator (PGC) from Tox21 10K library - cell viability counter screen (AID 1224840); also: nearly all actives have a fitted effect of over 40% in size
testContext: PGC/ERR reporter cells viability, CellTiter-Fluor, 17.5 h; series mostly up to 92.4 µM
Inconclusive results are not listed. The source made the active and inactive calls. The call rests on the fitted dose curve; in most records, active means well fitted cell-killing curve with a large enough effect in the repeat runs (not every such curve was filed as active); inconclusive means weak or mixed curves, or effect the other way; inactive means no such curve, though single readings can be large or run the other way.
The categories you may choose from are true (1) for active, false (0) for inactive

compound | labelClass
Cc1ccnc2c1NC(=O)c1cccnc1N2C1CC1 | false (0)
CC(C)(C)NCC(O)COc1ccccc1OCC1CCCO1 (stereo not given) | false (0)

Please let me know the test result on file for `O=C(O)c1cc(Cl)cc(Cl)c1` . false (0)

---

tgt: Cytochrome P450 2D6 (Homo sapiens) (UniProt P10635)
Sequence (P10635 whole entry, looked up): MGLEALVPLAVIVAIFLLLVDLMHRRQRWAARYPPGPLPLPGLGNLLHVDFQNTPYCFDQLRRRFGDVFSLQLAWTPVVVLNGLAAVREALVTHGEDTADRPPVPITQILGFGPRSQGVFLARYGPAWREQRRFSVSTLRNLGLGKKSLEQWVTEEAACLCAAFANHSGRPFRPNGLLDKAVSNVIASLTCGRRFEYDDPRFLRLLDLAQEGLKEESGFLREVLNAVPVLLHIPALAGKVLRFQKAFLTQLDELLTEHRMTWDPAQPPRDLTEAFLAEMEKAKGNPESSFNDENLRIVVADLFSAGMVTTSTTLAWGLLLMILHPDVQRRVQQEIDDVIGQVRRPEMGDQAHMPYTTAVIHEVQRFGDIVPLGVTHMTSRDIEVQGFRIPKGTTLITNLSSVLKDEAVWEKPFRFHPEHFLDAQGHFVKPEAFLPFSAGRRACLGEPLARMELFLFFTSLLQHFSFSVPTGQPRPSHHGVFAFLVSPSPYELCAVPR
protocolNotes: Cytochrome P450 Family 2 Subfamily D Member 6 (CYP2D6) small molecule antagonists: luciferase reporter qHTS assay (AID 1671196); also: nearly all actives have a fitted effect of over 50% in size
testContext: P450-Glo CYP2D6 enzyme assay, luciferin luminescence, 1 h; series mostly up to 115 µM
Inconclusive results are not listed. Calls of active or inactive are those of the source. The call rests on the fitted dose curve; in most records, active means well fitted inhibition curve with a large enough effect in the repeat runs; inconclusive means weak or mixed curves; inactive means no such curve, though single readings can be large or run the other way.
The categories you may choose from are active, inactive

Would you please look over these solved cases?
compound | labelClass
C=CC(=O)OCCCCCCCC | inactive
COc1ccc(CCN(C)CCCC(C#N)(c2ccc(OC)c(OC)c2)C(C)C)cc1OC (centres undefined) | inactive
Oc1c(Cl)cc(Cl)c(Cl)c1Cc1c(O)c(Cl)cc(Cl)c1Cl | inactive
N[C@@H]1CONC1=O | inactive
CC1COc2c(N3CCN(C)CC3)c(F)cc3c(=O)c(C(=O)O)cn1c23 (centres undefined) | inactive
Cc1cccc2n[nH]nc12 | inactive
CCCNC(C)C(=O)Nc1ccccc1C (centres undefined) | active
O=C1OC2(c3ccc(O)cc3Oc3cc(O)ccc32)c2ccccc21 | inactive
COc1nc(C)nc(Cl)c1NC1=NCCN1 | inactive
C[N+]1([O-])CCOCC1 | inactive

Please let me know the test result on file for `O=C(O)CCc1ccccc1` . inactive

Please let me know the test result on file for `COc1ccc(COC(C)=O)cc1` . inactive

Please let me know the test result on file for `Nc1ccc(O)cc1` . active

Please let me know the test result on file for `Nc1nc2ccccc2[nH]1` . active

---

protocolNotes: qHTS assay to identify small molecule agonists of the AP-1 signaling pathway - cell viability counter screen (AID 1159525); also: nearly all actives have a fitted effect of over 55% in size
testContext: ME-180 (cervical carcinoma) AP-1-bla cells viability, ATP luminescence, 5 h; series mostly up to 76.8 µM
Results filed as inconclusive are left out. The source made the active and inactive calls. Calls come from the whole dose curve.
The categories you may choose from are active, inactive

Would you please look over these solved cases?
molecule | labelClass
COc1cc(C(=S)N2CCOCC2)ccc1O | inactive
Oc1ccc(Cl)cc1Cc1cc(Cl)ccc1O | active
COc1ccc(CCN(C)CCCC(C#N)(c2ccc(OC)c(OC)c2)C(C)C)cc1OC (configuration not stated) | inactive

Please let me know the test result on file for `Cc1cc(C2(c3cc(C)c(O)cc3C)OS(=O)(=O)c3ccccc32)c(C)cc1O` . inactive

Please let me know the test result on file for `CCCOC(=O)c1cc(O)c(O)c(O)c1` . inactive

Please let me know the test result on file for `O=C(O)Cn1cnnn1` . inactive

Please let me know the test result on file for `NCCO` . inactive

---

Please go through the items and note down their max activation.
tgt: Nuclear receptor subfamily 1 group I member 2 (Rattus norvegicus) (UniProt Q9R1A7)
Sequence (Q9R1A7 whole entry, looked up): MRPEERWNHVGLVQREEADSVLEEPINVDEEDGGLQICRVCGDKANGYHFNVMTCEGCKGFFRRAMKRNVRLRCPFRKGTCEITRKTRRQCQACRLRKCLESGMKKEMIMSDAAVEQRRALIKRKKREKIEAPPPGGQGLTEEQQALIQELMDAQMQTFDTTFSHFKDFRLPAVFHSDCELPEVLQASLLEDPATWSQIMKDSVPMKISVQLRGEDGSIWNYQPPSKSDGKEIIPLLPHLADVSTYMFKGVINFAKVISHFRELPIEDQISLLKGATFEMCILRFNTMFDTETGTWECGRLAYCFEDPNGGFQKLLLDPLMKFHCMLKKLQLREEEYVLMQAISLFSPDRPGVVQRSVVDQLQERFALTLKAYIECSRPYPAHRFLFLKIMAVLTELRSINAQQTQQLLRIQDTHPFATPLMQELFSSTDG
protocolNotes: Rat pregnane X receptor (rPXR) activation by small molecules, qHTS assay (AID 1346983); also: % is scaled to controls: 0 for no effect and ±100 for the full control effect; nearly all actives have a fitted effect of over 20% in size
testContext: rPXR luciferase reporter cells, One-Glo luminescence, 24 h; stronger effect = higher value
From the text: National Center for Advancing Translational Sciences [NCATS] NIH Chemical Genomics Center [NCGC] U.S. Environmental Protection Agency [EPA] National Institutes of Environmental Health Sciences [NIEHS] National Toxicology Program [NTP] Assay overview: The Pregnane X receptor (PXR), a ligand activated nuclear receptor plays a critical role in the regulation of genes involved in drug metabolism and transporters. […]
Results filed as inconclusive are left out. Activity calls are given as the source filed them. The call rests on the fitted dose curve; in most records, active means well fitted activation curve with a large enough effect in the repeat runs; inconclusive means weak or mixed curves; inactive means no such curve, though single readings can be large or run the other way.

smilesRepresentation | max activation
Nc1nc(=S)c2[nH]cnc2[nH]1 | -4.65% (inactive)

I have 2 molecules here; please give me max activation for each one.
1. O=C(O)c1cn(-c2ccc(F)cc2)c2cc(N3CCNCC3)c(F)cc2c1=O
2. CC[C@H]1CN2CCc3cc(OC)c(OC)cc3[C@@H]2C[C@@H]1C[C@H]1NCCc2cc(OC)c(OC)cc21

1: -0.0913% (inactive); 2: -15.9% (inactive)

---

protocolNotes: qHTS RealTime-Glo MT Cell Viability Assay in HEK293 cells - 0 hour (AID 1224880); also: top concentration of the series differs between compounds; % is scaled to controls: 0 for no effect and ±100 for the full control effect; nearly all actives have a fitted effect of over 45% in size
testContext: RealTime-Glo luminescence; series mostly up to 76.8 µM
Results filed as inconclusive are left out. Active and inactive are the calls of the source. The call rests on the fitted dose curve; in most records, active means well fitted cell-killing curve with a large enough effect in the repeat runs; inconclusive means weak or mixed curves, or effect the other way; inactive means flat fitted curve, though single readings scatter.
The categories you may choose from are TRUE for active, FALSE for inactive

compound | labelClass
Cc1cc(Cc2cc(C)cc(C(C)(C)C)c2O)c(O)c(C(C)(C)C)c1 | FALSE

Attention now shifts to the item below.
Please let me know the test result on file for CC(COc1ccccc1)N(CCCl)Cc1ccccc1 (configuration not stated) . FALSE
